Provide the recorded TGI for the entries that follow.
# System: M14 melanoma
# assay-text: NCI tumour cell line growth inhibition, 48 h

See these solved cases before continuing.
CC(=O)n1nc(-c2ccccc2)n(/N=C/c2ccc([N+](=O)[O-])cc2)c1=O	> 100 µM
O=C(CC(=O)Nc1cccc(C(=O)O)c1)Nc1cccc(C(=O)O)c1	> 100 µM
CC[N+](CC)(CCNCC(N)=O)CC(N)=O	> 10 µM
COc1ncnc(C2CC2)c1-c1ncc2cnn(Cc3ccc(-c4nc(C(F)(F)F)cn4C(C)C)cc3)c2n1	> 100 µM
NNC(N)Nc1ccccc1 (configuration not stated)	> 100 µM
COc1cc(Nc2cnc3cc(F)c(F)cc3n2)cc(OC)c1OC	> 100 µM
OCCN1CN(CCO)CN(c2nc(N3CN(CCO)CN(CCO)C3)nc(N3CN(CCO)CN(CCO)C3)n2)C1	3.55 ng/mL
CC(=O)Nc1ccc(C(=O)NN2C(=O)C(Cl)C2c2ccccc2)cc1 (configuration not stated)	> 100 µM

The following molecules each have a reported value; give each one's TGI.
1. CNc1ccc(OC)cc1S(=O)(=O)c1ccccc1[N+](=O)[O-]
2. Oc1ccc(Cl)cc1Cc1cc(Cl)cc(Cl)c1O
3. O=C(CCCn1ccnc1[N+](=O)[O-])NCCn1cncc1[N+](=O)[O-]
4. CC(=O)Oc1cccc2c(/C=N/NC(N)=S)ncc(C)c12
5. c1ccc2sc(C3(N4CCCC4)CCCCCC3)cc2c1
6. S=C(c1c[nH]c2ccccc12)N1CCOCC1
7. CN(c1ccc(Cl)cc1)S(=O)(=O)c1cccc([N+](=O)[O-])c1
8. CCCCc1c(OC)cc(O)c2c1C(=O)c1[nH]c(C(=O)O)c(O)c(=O)c1C2=O

["> 100 µM", "23 µM", "> 100 µM", "3.18 µM", "31 µM", "> 100 µM", "> 100 µM", "34.3 µM"]

The following molecules each have a reported value; give each one's TGI.
1. NC(Cc1cccc([N+](=O)[O-])c1)C(=O)O (configuration not stated)
2. Nc1nc(Cl)c(N)c(NC23CC4CC(CC(C4)C2)C3)n1
3. CC(=O)c1c2c(cc3c1CC1(Cc4ccccc4C1=O)C3)CCC2 (configuration not stated)

["> 100 µM", "3.02 µM", "74.5 µM"]

The following molecules each have a reported value; give each one's TGI.
1. C[N+](C)([O-])CCC=C1c2ccccc2CCc2ccccc21
2. Cc1cc(N(CCC#N)CCC#N)ccc1/C(N=Nc1ccc([N+](=O)[O-])cc1)=N\NC(=O)c1cc(Cl)ccc1C(=O)c1ccccc1
3. O=C1OC(c2ccccc2)=N/C1=C/C=C/c1ccco1

1: > 100 µM; 2: > 100 µM; 3: > 100 µM

* * *

# Test system: K-562 leukemia
# assay-text: NCI tumour cell line growth inhibition, 48 h; in the data active means GI50 below about 0.43 µM; inactive means the rest
Would you mind answering with one of these outcomes? active, inactive

Answered cases to consult:
COc1ccc2c(c1)C(C)Cc1c(Cl)ncnc1N2C (centres undefined)	inactive
CC(O)C(N=Cc1ccccc1[O-])C(=O)[O-].CC(O)C(N=Cc1ccccc1[O-])C(=O)[O-].[Co+2] (centres undefined)	inactive
COc1ccc(C2CC(c3cccc(Nc4ccncc4)c3)=NN2c2cc(Cl)cc(Cl)c2)cc1 (centres undefined)	inactive
COc1cc(Nc2cn[nH]c2-c2ccc(Cl)cc2)cc(OC)c1OC	inactive
CC(=O)O.CC(=O)O.CC(=O)O.CC(=O)O.CC(=O)O.CC(=O)O.O.[Ti].[Ti]	inactive

// param item: CC(SC(C)C(=O)N/N=C/c1cccc(Cl)c1)C(=O)N/N=C\c1cccc(Cl)c1 (centres undefined) ; yields the recorded call
inactive

// param item: COc1ncnc(C2CC2)c1-c1ncc2cnn(Cc3ccc(-c4nc(C(F)(F)F)cn4C(C)C)cc3)c2n1 ; yields the recorded call
inactive

// param item: Fc1c[c-]c(-c2ccccn2)c(F)c1.Fc1c[c-]c(-c2ccccn2)c(F)c1.[Cl][Pt+].[Cl][Pt+].c1ccc([PH+](C[PH+](c2ccccc2)c2ccccc2)c2ccccc2)cc1 ; yields the recorded call
active

// param item: Clc1coc2nc3ccccc3c(Nc3ccc4c(c3)OCO4)c12 ; yields the recorded call
inactive
